measuredOn: H^+/K^+-ATPase (Sus scrofa, UniProt P19156)
Construct: The obtained microsome fraction was used as the H^+/K^+-ATPase standard product
Sequence (P19156 2-1034 limits assumed): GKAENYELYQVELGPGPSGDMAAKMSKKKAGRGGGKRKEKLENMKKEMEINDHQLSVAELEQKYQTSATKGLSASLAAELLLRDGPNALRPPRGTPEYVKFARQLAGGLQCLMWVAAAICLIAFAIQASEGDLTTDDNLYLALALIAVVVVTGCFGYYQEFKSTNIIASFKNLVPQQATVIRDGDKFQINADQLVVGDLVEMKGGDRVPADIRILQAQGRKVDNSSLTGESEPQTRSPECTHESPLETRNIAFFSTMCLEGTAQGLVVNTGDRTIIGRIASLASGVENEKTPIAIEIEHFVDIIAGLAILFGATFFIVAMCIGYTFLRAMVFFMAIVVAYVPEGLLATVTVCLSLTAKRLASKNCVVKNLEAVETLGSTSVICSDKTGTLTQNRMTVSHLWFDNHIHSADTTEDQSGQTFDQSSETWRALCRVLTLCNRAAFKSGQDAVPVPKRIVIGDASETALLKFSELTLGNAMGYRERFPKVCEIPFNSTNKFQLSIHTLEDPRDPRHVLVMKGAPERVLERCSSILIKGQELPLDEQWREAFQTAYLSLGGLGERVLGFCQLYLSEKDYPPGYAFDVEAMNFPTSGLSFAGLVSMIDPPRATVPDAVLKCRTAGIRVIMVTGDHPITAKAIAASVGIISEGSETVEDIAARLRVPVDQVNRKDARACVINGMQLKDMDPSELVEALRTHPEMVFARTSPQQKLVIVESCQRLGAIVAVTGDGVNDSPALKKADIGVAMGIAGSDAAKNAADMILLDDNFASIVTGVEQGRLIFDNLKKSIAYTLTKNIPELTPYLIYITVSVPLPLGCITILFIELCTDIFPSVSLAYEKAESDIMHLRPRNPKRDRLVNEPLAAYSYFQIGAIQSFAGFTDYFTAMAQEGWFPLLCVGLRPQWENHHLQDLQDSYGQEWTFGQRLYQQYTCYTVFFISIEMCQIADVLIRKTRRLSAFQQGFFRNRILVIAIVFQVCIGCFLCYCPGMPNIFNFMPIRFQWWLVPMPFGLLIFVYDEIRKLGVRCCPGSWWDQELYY
Sequence (P18434 whole entry partner): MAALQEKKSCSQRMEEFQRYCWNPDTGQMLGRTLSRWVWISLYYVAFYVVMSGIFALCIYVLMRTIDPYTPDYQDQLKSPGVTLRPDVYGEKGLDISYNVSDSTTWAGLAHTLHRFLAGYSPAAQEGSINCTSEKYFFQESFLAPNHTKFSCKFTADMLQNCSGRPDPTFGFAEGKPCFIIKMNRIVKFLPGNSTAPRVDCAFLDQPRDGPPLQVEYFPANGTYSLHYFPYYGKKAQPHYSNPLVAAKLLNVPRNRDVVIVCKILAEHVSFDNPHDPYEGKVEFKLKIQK
procedureDetails: Proton, potassium-adenosine triphosphatase (H+/K+-ATPase) inhibitory activity test
reportedConditions: pig stomach mucous membrane microsome fraction; pH 6.5, 37° C.; malachite green colorimetry at 610 nm; read-out: IC50 (50% inhibitory concentration of proton and potassium-adenosine triphosphatase)
pIC50: −log10 of the molar value.
pIC50 below 8 gives Condition not met; pIC50 at or above it gives Condition met.

Query: State whether the measured pIC50 reaches 8, counting equality as reaching it, for "Cc1[nH]c2c(NC(=O)c3ccccc3)nccc2c1C"
Response: Condition not met

Query: Does "CCCn1c(C)c(C)c2ccnc(NCc3ccc(F)cc3C)c21" have a reported pIC50 of at least 8?
Response: Condition not met

Query: Does the compound "CCCn1c(C)cc2ccnc(NCc3ccccc3)c21" have recorded pIC50 that is 8 or more?
Response: Condition not met

Query: Exam item: decide whether the reported pIC50 for "Cc1cc(F)ccc1CNc1nccc2c(CO)c(C)n(CC(C)C)c12" is at least 8.
Response: Condition met

Query: Does the reported pIC50 for "Cc1cc2ccnc(NCc3ccccc3)c2n1CC1CC1" fall at or above the 8 mark?
Response: Condition not met

Query: Dear colleague, could you confirm whether "Cc1[nH]c2c(NCc3ccccc3)nccc2c1C" has pIC50 at or above 8?
Response: Condition not met
